Target: B1R receptor of the rat (CHO K1 cells stably transfected with the B1R gene of the rat) (Rattus norvegicus, UniProt P97583)
Construct: expressed in transfected cells; host or cells: CHO K1 cells (Chinese hamster ovary), stably transfected
Sequence (P97583 1-337): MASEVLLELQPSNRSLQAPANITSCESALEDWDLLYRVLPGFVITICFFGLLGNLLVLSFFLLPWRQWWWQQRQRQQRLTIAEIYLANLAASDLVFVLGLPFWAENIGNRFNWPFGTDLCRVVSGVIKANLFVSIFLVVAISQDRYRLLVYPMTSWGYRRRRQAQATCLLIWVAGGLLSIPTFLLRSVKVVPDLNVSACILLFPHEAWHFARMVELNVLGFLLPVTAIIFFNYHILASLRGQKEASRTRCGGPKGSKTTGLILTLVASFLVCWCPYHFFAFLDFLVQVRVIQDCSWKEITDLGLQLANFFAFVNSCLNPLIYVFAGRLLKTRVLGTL
Test: Functional study on the bradykinin receptor 1 (B1R), Ca2+ fluorescence (Fluo-4) FLIPR/Novostar assay, rB1R cells
Type: cell-based
Conditions: CHO-K1, 10 μM, read-out: % inhibition (rat B1R) at 10 μM
propertyName: inhibition at 10 µM (%)

>>> print(df.to_string())
                          structureassmiles         propertyname  unitannotation  measuredvalue
0  Cc1cc(N2CCC(N(C)C(=O)c3ccc4c(c3)[C@H](NC(=O)c3ccccc3Cl)CC4)CC2)nc(C)n1  inhibition at 10 µM               %            103
1  Cc1cc(N2CCC(N(C)C(=O)c3ccc4c(c3)[C@H](NC(=O)CCC3CCCC3)CC4)CC2)nc(C)n1  inhibition at 10 µM               %             99
2  Cc1cc(N2CCC(N(C)C(=O)c3ccc4c(c3)[C@H](N(C)C(=O)c3cccnc3C(F)(F)F)CC4)CC2)nc(C)n1  inhibition at 10 µM               %            104
3  Cc1cc(N2CCC(N(C)C(=O)c3ccc4c(c3)[C@H](N(C)C(=O)c3ccccc3Cl)CC4)CC2)nc(C)n1  inhibition at 10 µM               %            101
4  CN(C(=O)c1ccc2c(c1)[C@H](NC(=O)c1ccccc1Cl)CC2)C1CCN(c2ccncc2F)CC1  inhibition at 10 µM               %            105
5  CN(C(=O)c1ccc2c(c1)[C@H](NC(=O)c1ccccc1C(C)(C)C)CC2)C1CCN(c2ccncc2)CC1  inhibition at 10 µM               %            102

The origin of these recorded values is patent US8680159B2.
